pIC50: −log10 of the molar value.
Let's go through some recorded pIC50 values for Cyclin-dependent kinase 2 (Homo sapiens, UniProt P24941) together.
assayEndpoint: pIC50

Prompt line: What does the data say about its pIC50? Entry: Clc1ccc(Nc2nccc(-c3cnn4ncccc34)n2)cc1Cl
Response line: 9.00

A. Fc1cc(F)cc(Nc2nccc(-c3cnn4ncccc34)n2)c1
B. COc1cc(Nc2nccc(-c3cnn4nc(OC)ccc34)n2)cc(OC)c1
C. c1cnn2ncc(-c3ccnc(Nc4ccc5c(c4)OCCCO5)n3)c2c1
Prompt line: Task field, ranking: reported pIC50, descending order. Provide the labels, sequenced as the question asks.
Response line: A, C, B

###

// endpoint IC50 / system Glycogen synthase kinase-3 beta (Homo sapiens, UniProt P49841)
assayEndpoint: IC50 (nM)

Prompt line: What measured IC50 goes with COc1ccc2c(-c3ccnc(Nc4ccc5c(c4)OCCO5)n3)cnn2n1 ?
Response line: 30

Prompt line: Do the same for Fc1ccc(Nc2nccc(-c3c(-c4ccccc4)nn4ncccc34)n2)cc1F please
Response line: 10

a. c1ccc(-c2ccc3c(-c4ccnc(Nc5ccc6c(c5)OCCO6)n4)cnn3n2)cc1
b. Fc1ccc(-c2nn3ncccc3c2-c2ccnc(Nc3ccc(Cl)c(C(F)(F)F)c3)n2)cc1
Prompt line: Dear colleague, could you let me know whether a or b has the lower recorded IC50? Thanks. Use the label to indicate which entry you chose.
Response line: b
(b: 40 nM, a: 120 nM)

###

# systemUnderTest: UniProt P24941
pIC50: −log10 of the molar value.
# maps each entry to its pIC50

Known pIC50 results, listed for orientation:
Prompt line: Item: COc1ccc(-c2nn3ncccc3c2-c2ccnc(Nc3ccc(Cl)c(C(F)(F)F)c3)n2)cc1 [GW829115X] Test system: UniProt P24941 Read-out: pIC50 Value: ?
Response line: < 4.70

Prompt line: Try this molecule too: COc1ccc(-c2nn3ncccc3c2-c2ccnc(Nc3ccc(F)c(F)c3)n2)cc1 [GW827396X]
Response line: < 4.70

Prompt line: Same again, this time with Cc1ccc2c(-c3ccnc(Nc4cccc(C(F)(F)F)c4)n3)c(-c3ccc(F)cc3)nn2n1
Response line: < 4.70

Prompt line: Try this molecule too: Cc1ccc2c(-c3ccnc(Nc4ccc5c(c4)OCCO5)n3)c(-c3cccc(C(F)(F)F)c3)nn2n1
Response line: 5.30

Prompt line: Please give the result for CC(C)c1ccc(Nc2nccc(-c3cnn4ncccc34)n2)cc1 [GW805758X] too.
Response line: 8.00

---
Prompt line: # value lookup — system UniProt P24941, readout pIC50, item Fc1ccc(-c2nn3ncccc3c2-c2ccnc(Nc3ccccc3)n2)cc1
Response line: < 4.70

Prompt line: Would you kindly repeat that for c1ccc(Nc2nccc(-c3c(C4CCCCC4)nn4ncccc34)n2)cc1 ?
Response line: < 4.70

Prompt line: Lookup Cc1ccc2c(-c3ccnc(Nc4ccccc4)n3)c(-c3cccc(C(F)(F)F)c3)nn2n1
Response line: < 4.70

###

# systemUnderTest: Glycogen synthase kinase-3 beta (Rattus norvegicus, UniProt P18266)
# Sequence (P18266 whole entry): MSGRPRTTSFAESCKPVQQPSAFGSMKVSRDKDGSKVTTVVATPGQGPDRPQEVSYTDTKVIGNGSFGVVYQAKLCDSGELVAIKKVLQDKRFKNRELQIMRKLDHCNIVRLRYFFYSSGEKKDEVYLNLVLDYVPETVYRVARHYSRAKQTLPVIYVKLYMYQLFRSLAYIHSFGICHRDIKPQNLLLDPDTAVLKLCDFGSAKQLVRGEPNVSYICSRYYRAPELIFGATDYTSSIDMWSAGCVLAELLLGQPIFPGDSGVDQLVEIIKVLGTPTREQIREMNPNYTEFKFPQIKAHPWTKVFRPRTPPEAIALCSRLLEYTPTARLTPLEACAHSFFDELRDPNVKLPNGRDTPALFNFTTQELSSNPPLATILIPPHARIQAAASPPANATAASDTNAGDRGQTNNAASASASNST
# protocolDetails: Effective concentration to increase glycogen deposition in rat skeletal muscle L6 myoblast cells
# Assay type: functional, cell-based
assayEndpoint: EC50 (nM)

Sample answers from the record:
Prompt line: Find the recorded EC50 belonging to FC(F)(F)c1cccc(Nc2nccc(-c3c(-c4ccccc4)nn4ncccc34)n2)c1 and report it.
Response line: 2100

Prompt line: Consider next the compound COc1cc(Nc2nccc(-c3cnn4ncccc34)n2)cc(C(F)(F)F)c1 in the same way.
Response line: 1200

Prompt line: Another compound: c1cnn2ncc(-c3ccnc(Nc4ccc5c(c4)OCCO5)n3)c2c1 [GW806290X]
Response line: 800

I. Cc1ccc2c(-c3ccnc(Nc4ccc(F)c(F)c4)n3)c(-c3ccccc3)nn2n1
II. c1ccc(Nc2nccc(-c3c(-c4ccccc4)nn4ncccc34)n2)cc1
III. FC(F)(F)c1cc(Nc2nccc(-c3cnn4ncccc34)n2)ccc1Cl
IV. Cc1ccc2c(-c3ccnc(Nc4cccc(C(F)(F)F)c4)n3)c(-c3ccc(F)cc3)nn2n1
Prompt line: In this exercise, place the 4 compounds in ascending sequence of their recorded EC50. Arrange the labels as the request states and list them.
Response line: III, II, I, IV
